tested on: C8166; experiment: Synergistic antiviral activity with AZT (DDI), against HIV-IIIB in C8166 cells; assay type: functional, cell-based; details: Homo sapiens
Readings of EC50 for the listed compounds
quantity_name: EC50 (nM)

>>> recorded_measurement("O=c1c2cccn2c2ncccc2n1CCNC(=S)Nc1ccc(Br)cn1")
50
>>> recorded_measurement("O=c1c2cccn2c2cccc(F)c2n1CC/N=C(\\S)Nc1ccc(Br)cn1")
2
>>> recorded_measurement("O=c1c2nccn2c2ccccc2n1CCNC(=S)Nc1ccc(Br)cn1")
460
>>> recorded_measurement("O=c1c2cccn2c2ccc(F)cc2n1CC/N=C(\\S)Nc1ccc(Br)cn1")
57

====

assay: Selectivity index was determined in C8166 cells; assay type: functional
The following molecules are shown together with reported SI values.
quantity_name: SI

>>> recorded_measurement("CC(C)=CCN1Cc2c(Cl)ccc3[nH]c(=S)n(c23)C[C@@H]1C [TIVIRAPINE]")
1670
>>> recorded_measurement("O=c1c2cccn2c2cccc(F)c2n1CC/N=C(\\S)Nc1ccc(Br)cn1")
7990
>>> recorded_measurement("O=c1c2nccn2c2ccccc2n1CCNC(=S)Nc1ccc(Br)cn1")
275
>>> recorded_measurement("O=c1c2cccn2c2c(F)cccc2n1CCNC(=S)Nc1ccc(Br)cn1")
105

====

test: Half life period was determined after subcutaneous administration of a dose of 20 mg/kg in mice; type: ADME, organism-based; parameters: dose 20 mg/kg, route subcutaneous; settings: mouse, in vivo, sc
quantity_name: half-life (h)

>>> recorded_measurement("O=C(NNc1nc2ccccc2n2cccc12)c1cnccn1")
1.5

====

assay: Subcutaneous absorption was determined fter subcutaneous administration of a dose of 20 mg/kg in mice; type: ADME, organism-based; design: dose 20 mg/kg, route subcutaneous; conditions: mouse, in vivo, sc
quantity_name: Tmax

>>> recorded_measurement("O=C(NNc1nc2ccccc2n2cccc12)c1cnccn1")
"2 h"

====

Let's look at some compounds and their measured log10 Ki.
target: Human immunodeficiency virus type 1 reverse transcriptase (Human immunodeficiency virus 1, UniProt Q72547, Y181I); assay: Inhibition of HIV-1 Mutant HIV-1 RT enzymes containing the single amino acid substitution Y181I
quantity_name: log10 Ki (log10 of the value in nM)

>>> recorded_measurement("O=c1c2cccn2c2ccc(F)cc2n1CC/N=C(\\S)Nc1ccc(Br)cn1")
3.00
>>> recorded_measurement("O=c1c2nccn2c2ccccc2n1CCNC(=S)Nc1ccc(Br)cn1")
3.15
>>> recorded_measurement("O=c1c2cccn2c2ccc(Cl)cc2n1CCNC(=S)Nc1ccc(Br)cn1")
2.38
>>> recorded_measurement("O=C(NNc1nc2ccccc2n2cccc12)c1cnccn1")
3.40
>>> recorded_measurement("O=c1c2cccn2c2c(F)cc(F)cc2n1CCNC(=S)Nc1ccc(Br)cn1")
3.20
